# measurement-protocol: yeast display, Sf9 membrane polyspecificity reagent, FACS + sequencing; frameworks hold sequencing errors
measured-parameter: polyreactivity (PSR sort gate)

[[record]]
seq_text = "QVQLVESGGGLVQAGGSLRLSCAASGRIFRGYAMGWYRQAPGKERELVADISSGASTNYADSVKGRFTISRDNAKKTVYFQMNSLKPEDTAVYYCAAQHSVLAYFEDDYWGQGTQVTVSS"
measured_parameter = "polyreactivity (PSR sort gate)"
result = "low polyreactivity"

[[record]]
seq_text = "QVQLVESGGGLVQAGGSLRLSCAASGSIFKGYAMGWSRQAPGKERELVASITSSGGSTYYADSVKGRFTISRDNAKNTVYLQMNCLKPEDTAVYYCATDHDSVRVLVSSTSDYDYWGQGTQVTVSS"
measured_parameter = "polyreactivity (PSR sort gate)"
result = "low polyreactivity"

